B1: Hairpin Ribozyme (parent)
chain: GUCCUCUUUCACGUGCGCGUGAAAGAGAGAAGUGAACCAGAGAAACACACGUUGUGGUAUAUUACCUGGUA

Variants of: B1
Assay: self-cleavage, relative activity (ratio to wild type); higher = more cleavage; co-transcriptional
Below, each of the variants is paired with its reported self-cleavage value.

MUTANT CODE	self-cleavage
G15C U67G	0.294
G25U U60A	0.391
G1C A28U	0.247
A44C G51A	0.0817
U7C U8C	0.52
A11G G69C	0.267
A47G U60C	0.135
U20A A41G	0.681
A47G G57C	0.159
G34C G51U	1.4
C10U A23C	0.637

Value source: the RNAGym collection of RNA variant scans (doi:10.7554/elife.80360)
